target: recombinant human SYK360-635 (Homo sapiens); construct: truncated construct of Spleen Tyrosine Kinase aa 360-635; assay: SYK kinase assay, 33P ATP incorporation into biotinylated peptide; conditions: 0.5 nM SYK aa 360-635, ATP 20 μM, peptide 5 μM, 15 min at 30° C.; read-out: IC50 h-syk (360-635)-baculovirus-c
The molecules listed here are annotated with their IC50.
property_label: IC50 (nM)

molecule=COc1cc(-c2cnc3[nH]cc(C(=O)C4(C)CCCCC4)c3n2)cc(OC)c1OC target_system="recombinant human SYK360-635 (Homo sapiens)" experimental_result=162
molecule=COc1cc(-c2cnc3[nH]cc(C(=O)C(C)(C)C)c3n2)cc(OC)c1OC target_system="recombinant human SYK360-635 (Homo sapiens)" experimental_result=317
molecule="COc1cc(-c2cnc3[nH]cc(C(=O)NCC(C)OC)c3n2)cc(OC)c1OC (stereo not shown)" target_system="recombinant human SYK360-635 (Homo sapiens)" experimental_result=36
molecule=CC(C)(C)C(=O)c1c[nH]c2ncc(-c3cccc(N4CCCC4)c3)nc12 target_system="recombinant human SYK360-635 (Homo sapiens)" experimental_result=1310

* * *

Counter-ions that a name gives are not always drawn.
property_label: melting point

molecule="COc1cc(-c2cnc3[nH]cc(C(=O)C4(C)CCCC(C)C4)c3n2)cc(OC)c1OC (centres unmarked) [Example 169]" experimental_result="229 to 231 °C"
molecule="COc1cc(-c2cnc3[nH]cc(C(=O)CCC(C)OC)c3n2)cc(OC)c1OC (centres unmarked) [Example 129]" experimental_result="150 to 151 °C"
molecule="CC(C)c1cccc(-c2cnc3[nH]cc(C(=O)C(C)(C)C)c3n2)c1 [Example I-337]" experimental_result="197 to 198 °C"
molecule="CCNC(=O)c1cccc(-c2cnc3[nH]cc(C(=O)C(C)(C)C)c3n2)c1 [Example I-365]" experimental_result="232 to 233 °C"
molecule="COc1cc(-c2cnc3[nH]cc(C(=O)C(=O)N(C)C)c3n2)cc(OC)c1OC [Example 74]" experimental_result="227 to 228 °C"
molecule="CC(C)(C)C(=O)c1c[nH]c2ncc(-c3cccc(-n4cccc4)c3)nc12 [Example 232]" experimental_result="220 to 222 °C"
molecule="COc1cccc(-c2cnc3[nH]cc(C(=O)C(C)(C)C)c3n2)c1 [Example I-134]" experimental_result="197.4 to 198.8 °C"
molecule="CC1(C(=O)c2c[nH]c3ncc(-c4cccc(N5CCCC5)c4)nc23)CC[C@@H]2CCC[C@@H]21 (some centres unmarked) [Example 215]" experimental_result="200 to 202 °C"
molecule="CC1(C(=O)c2c[nH]c3ncc(-c4cccc(N5CCN(S(C)(=O)=O)CC5)c4)nc23)CCCCC1 [Example 181]" experimental_result="230 to 231 °C"
molecule="CC1(C(=O)c2c[nH]c3ncc(-c4cccc(N5CCCC5)c4)nc23)CCCCC1 [Example 36]" experimental_result="243 to 245.4 °C"
molecule="COc1ccc(-c2cnc3[nH]cc(C(=O)NC4CCN(C(C)=O)C4)c3n2)cc1OC (centres unmarked) [Example 26]" experimental_result="211 to 212 °C"
molecule="COc1ccc(COc2cccc(-c3cnc4[nH]cc(C(=O)NC(C)C)c4n3)c2)cc1 [Example I-229]" experimental_result="215 to 216 °C"
molecule="CC(C)(C)C(=O)c1c[nH]c2ncc(-c3ccc(OCCN4CCCCC4)cc3)nc12 [Example I-363]" experimental_result="207 to 208 °C"
molecule="COc1cc(-c2cnc3[nH]cc(C(=O)NCC(C)OC)c3n2)cc(OC)c1OC (centres unmarked) (as salt: hydrochloride) [Example 24]" experimental_result="199 to 200 °C"
molecule="CC(C)(C)C(=O)c1c[nH]c2ncc(-c3cccc(N4CCNCC4)c3)nc12 [Example I-46]" experimental_result="216 to 222 °C"
molecule="CC(C)(C)C(=O)c1c[nH]c2ncc(-c3cccc(S(N)(=O)=O)c3)nc12 [Example 144]" experimental_result="275 to 277 °C"
molecule="COc1cc(-c2cnc3[nH]cc(C(=O)Cc4ccccc4)c3n2)cc(OC)c1OC [Example 64]" experimental_result="226 to 227 °C"
molecule="CC(C)(C)C(=O)c1c[nH]c2ncc(-c3cccc(N4CCC5(CCSC5)C4)c3)nc12 (centres unmarked) [Example I-168]" experimental_result="239 to 241 °C"
molecule="CC(C)(C)C(=O)c1c[nH]c2ncc(-c3cccc(C4=CCCCC4)c3)nc12 [Example I-352]" experimental_result="188 to 190 °C"
molecule="CC(C)Oc1cccc(-c2cnc3[nH]cc(C(=O)C(C)(C)C)c3n2)c1 [Example 138]" experimental_result="149 to 150 °C"
molecule="CN(C)c1ccc(-c2cnc3[nH]cc(C(=O)C4(C)CCCCC4)c3n2)cc1 [Example 158]" experimental_result="272 to 274 °C"
molecule="CC(C)(C)C(=O)c1c[nH]c2ncc(-c3cccc(-n4cccn4)c3)nc12 [Example I-115]" experimental_result="219.3 to 221.1 °C"
molecule="COc1ccccc1-c1cnc2[nH]cc(C(=O)C(C)(C)C)c2n1 [Example I-133]" experimental_result="199.5 to 200.7 °C"
molecule="CC1(C(=O)c2c[nH]c3ncc(-c4ccc(N5CCNCC5)cc4)nc23)CCCCC1 [Example 185]" experimental_result="214 to 216 °C"
molecule="COCc1ccc(-c2cnc3[nH]cc(C(=O)C(C)(C)C)c3n2)cc1 [Example I-132]" experimental_result="191 to 192 °C"
molecule="CC(C)(C)C(=O)c1c[nH]c2ncc(-c3cccc(N4CCS(=O)(=O)CC4)c3)nc12 [Example 230]" experimental_result="279 to 280 °C"
molecule="COc1cc(-c2cnc3[nH]cc(C(=O)C45CC6CC(CC(C6)C4)C5)c3n2)cc(OC)c1OC [Example 162]" experimental_result="267 to 268 °C"
molecule="COc1cc(OC)cc(-c2cnc3[nH]cc(C(=O)C(C)(C)C)c3n2)c1 [Example 146]" experimental_result="206.9 to 207.7 °C"
molecule="CNC(=O)C1(C)CCN(c2cccc(-c3cnc4[nH]cc(C(=O)C(C)(C)C)c4n3)c2)C1 (centres unmarked) [Example 210]" experimental_result="252 to 254 °C"
